Values compiled from patent US11230591.

Assignment: determine reported Pair-wise inhibition (%) for the given binders.
Target: recombinant pentameric gH complex (Towne strain) (human cytomegalovirus, Towne strain) (UniProt P17176)
Sequence (P17176 30-715, one chain of several): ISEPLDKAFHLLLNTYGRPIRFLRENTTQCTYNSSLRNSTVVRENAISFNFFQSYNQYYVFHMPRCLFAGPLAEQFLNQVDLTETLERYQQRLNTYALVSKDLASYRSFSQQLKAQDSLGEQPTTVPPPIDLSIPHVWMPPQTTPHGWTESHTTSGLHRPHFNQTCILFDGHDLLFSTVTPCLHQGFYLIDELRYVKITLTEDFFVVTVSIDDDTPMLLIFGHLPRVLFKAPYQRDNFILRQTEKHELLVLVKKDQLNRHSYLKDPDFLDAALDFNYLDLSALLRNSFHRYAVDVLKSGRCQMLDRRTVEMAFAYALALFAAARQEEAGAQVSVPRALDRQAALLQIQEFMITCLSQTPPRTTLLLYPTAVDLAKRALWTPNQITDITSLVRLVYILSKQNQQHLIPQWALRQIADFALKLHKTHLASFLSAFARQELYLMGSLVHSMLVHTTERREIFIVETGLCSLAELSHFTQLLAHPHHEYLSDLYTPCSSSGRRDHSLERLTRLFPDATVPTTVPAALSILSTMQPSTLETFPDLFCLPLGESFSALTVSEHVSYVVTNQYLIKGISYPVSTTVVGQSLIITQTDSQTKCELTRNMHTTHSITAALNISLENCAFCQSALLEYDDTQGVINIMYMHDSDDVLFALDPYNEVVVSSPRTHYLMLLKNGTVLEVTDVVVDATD
Experiment: BLI competition on His-pentamer; competitor (antibody 2): 1-150
Please state the value followed by its unit.

The following binders each have a reported value; give each one's Pair-wise inhibition (%).
1. 3-7 (antibody, V domains shown) VH: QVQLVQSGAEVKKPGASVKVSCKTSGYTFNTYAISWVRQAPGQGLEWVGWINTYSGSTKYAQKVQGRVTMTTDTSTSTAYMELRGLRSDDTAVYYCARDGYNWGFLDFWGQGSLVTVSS VL: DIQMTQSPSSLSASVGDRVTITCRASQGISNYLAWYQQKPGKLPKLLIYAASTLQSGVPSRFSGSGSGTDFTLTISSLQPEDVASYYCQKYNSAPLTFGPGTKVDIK
2. 1-85 (antibody, V domains shown) VH: QVHLVESGGGLVKPGRSLRLSCAASGFTFSDYYMAWIRQVPGKGLEWVSFISSSGRTIYYADSVKGRFTISRDNAKDSLYLQMHSLRAEDTAVYYCARDSYSKLVDIEAIEAFDIWGRGTMVTVSS VL: SYELAQPPSVSVAPGKTATIACGGDNIGGKSVHWYLQKAGQAPVLVISYDSDRPSGIPERFSGSNSGNTATLTISRVEAGDEADYFCQVWDRHGDHVVFGGGTKLTVL
3. 1-103 (antibody, V domains shown) VH: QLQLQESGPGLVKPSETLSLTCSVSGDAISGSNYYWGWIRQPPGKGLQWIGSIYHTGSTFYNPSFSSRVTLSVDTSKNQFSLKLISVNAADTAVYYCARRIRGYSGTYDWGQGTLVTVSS VL: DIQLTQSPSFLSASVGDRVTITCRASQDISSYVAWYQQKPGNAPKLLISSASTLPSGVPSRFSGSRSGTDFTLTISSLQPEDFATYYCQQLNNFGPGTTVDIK

RESULT:
1. -6%
2. 117%
3. -49%
